test_system: hP2X7 (Homo sapiens, UniProt Q99572)
Construct: expressed in transfected cells; host or cells: 1321N1 astrocytoma cells
Sequence (Q99572 whole entry): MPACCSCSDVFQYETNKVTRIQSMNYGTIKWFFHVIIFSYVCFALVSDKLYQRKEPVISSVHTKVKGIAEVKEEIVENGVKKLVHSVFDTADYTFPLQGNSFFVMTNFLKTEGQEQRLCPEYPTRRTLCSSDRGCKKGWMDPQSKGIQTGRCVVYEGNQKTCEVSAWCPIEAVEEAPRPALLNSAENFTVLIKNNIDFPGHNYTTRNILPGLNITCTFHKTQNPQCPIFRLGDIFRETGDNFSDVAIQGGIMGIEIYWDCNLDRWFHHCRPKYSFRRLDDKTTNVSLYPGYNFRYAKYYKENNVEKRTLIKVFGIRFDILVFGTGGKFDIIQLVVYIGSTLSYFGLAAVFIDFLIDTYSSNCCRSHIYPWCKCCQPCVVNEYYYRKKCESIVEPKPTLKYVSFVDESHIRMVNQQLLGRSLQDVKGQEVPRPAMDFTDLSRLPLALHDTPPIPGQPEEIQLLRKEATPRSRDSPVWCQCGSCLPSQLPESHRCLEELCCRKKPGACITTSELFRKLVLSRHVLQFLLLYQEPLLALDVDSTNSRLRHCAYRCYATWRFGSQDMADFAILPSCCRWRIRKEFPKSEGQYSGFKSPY
experiment_description: P2X7 antagonism: ligand-induced Ca2+ flux in 1321N1 astrocytoma cells overexpressing hP2X7
Type: cell-based
measurement_conditions: pIC50 = -log(IC50), read-out: hP2RX7pIC50 (mean pIC50 values) (converted)
value_kind: IC50 (µM)

>>> experimental_value("O=C(NCC(c1cnc(N2CCCC2)nc1)N1CCC(F)(F)CC1)c1cccc2nc(NCC3CC3)ccc12 (stereo not shown) [Compound 262]")
0.0562
>>> experimental_value("CC1CN(c2ccc3c(C(=O)NCC(c4cnc(C(F)(F)F)nc4)N4CCC(F)(F)CC4)cccc3n2)CC(C)O1 (stereo not shown) [Compound 140]")
0.0912
>>> experimental_value("O=C(NCC(c1cnc(C(F)(F)F)nc1)N1CCCOCC1)c1cccc2nc(NCCO)ccc12 (stereo not shown) [Compound 89]")
0.0851
>>> experimental_value("O=C(NCC(c1cnc(N2CCCC2)nc1)N1CCC(F)(F)CC1)c1cccc2nc(N3CCCC3)ccc12 (stereo not shown) [Compound 225]")
0.102

A: CC(C)Nc1ccc2c(C(=O)NCC(c3cnc(C(F)(F)F)nc3)N3CCOCC3)cccc2n1 (stereo not shown) [Compound 168]
B: CC(C)(C)C1CCN(c2ccc3c(C(=O)NCC(c4cnc(C(F)(F)F)nc4)N4CCOCC4)cccc3n2)CC1 (stereo not shown) [Compound 276]
C: CC(C)N1CCN(c2ccc3c(C(=O)NCC(c4cnc(N5CCCC5)nc4)N4CCOCC4)cccc3n2)CC1 (stereo not shown) [Compound 285]
**Query** List by increasing IC50. // respond by listing labels in the order requested
**Result** A, C, B

These data points were gathered from patent US8431704B2.
